Sourced from ChEMBL document CHEMBL1131409

Test system: SK-OV-3
methodNotes: In vitro cytotoxicity against SKOV-3 ovarian cells using the sulforhodamine B(SRB) assay.
Type: functional, cell-based
setupConditions: Homo sapiens
observable: pIC50
Units for pIC50: none; it is -log10 of a concentration expressed in mol/L.

Some compounds with known pIC50 results, for comparison:
{"columns": ["recordSmiles", "pIC50"],
 "data": [
  ["CC[N+](C)(CC)CCC(=O)Nc1ccc2c(c1)C(=O)c1cc(NC(=O)CC[N+](C)(CC)CC)ccc1C2=O", 5.70],
  ["CCN(CC)CCC(=O)Nc1ccc(NC(=O)CCN(CC)CC)c2c1C(=O)c1ccccc1C2=O", 5.85],
  ["O=C(CCN1CCCC1)Nc1cccc2c1C(=O)c1cccc(NC(=O)CCN3CCCC3)c1C2=O", 6.28],
  ["CC[N+](C)(CC)CCC(=O)Nc1cccc2c1C(=O)c1cccc(NC(=O)CC[N+](C)(CC)CC)c1C2=O", 5.00],
  ["C[N+]1(CCC(=O)Nc2ccc3c(c2)C(=O)c2cc(NC(=O)CC[N+]4(C)CCCC4)ccc2C3=O)CCCC1", 5.33],
  ["C[N+]1(CCC(=O)Nc2cccc3c2C(=O)c2cccc(NC(=O)CC[N+]4(C)CCOCC4)c2C3=O)CCOCC1", 5.54],
  ["C[N+](C)(C)CCC(=O)Nc1cccc2c1C(=O)c1c(NC(=O)CC[N+](C)(C)C)cccc1C2=O", 5.66],
  ["C[N+]1(CCC(=O)Nc2ccc3c(c2)C(=O)c2ccc(NC(=O)CC[N+]4(C)CCCC4)cc2C3=O)CCCC1", 5.70],
  ["CN(C)CCC(=O)Nc1cccc2c1C(=O)c1c(NC(=O)CCN(C)C)cccc1C2=O", 5.78],
  ["O=C(CCN1CCCCC1)Nc1ccc2c(c1)C(=O)c1cc(NC(=O)CCN3CCCCC3)ccc1C2=O", 5.43]
]}

Q: Record request: pIC50 value, item "C[N+]1(CCC(=O)Nc2cccc3c2C(=O)c2c(NC(=O)CC[N+]4(C)CCCCC4)cccc2C3=O)CCCCC1"
A: 5.34

Q: Quick one: pIC50 of "C[N+]1(CCC(=O)Nc2cccc3c2C(=O)c2c(NC(=O)CC[N+]4(C)CCOCC4)cccc2C3=O)CCOCC1" ?
A: 5.59

Q: Look up pIC50: "C[N+](C)(C)CCC(=O)Nc1ccc2c(c1)C(=O)c1cc(NC(=O)CC[N+](C)(C)C)ccc1C2=O"
A: 5.40

Q: Name the recorded pIC50 for "CN(C)CCC(=O)Nc1cccc2c1C(=O)c1cccc(NC(=O)CCN(C)C)c1C2=O" .
A: 6.21

Q: Which pIC50 value belongs to "O=C(CCN1CCCC1)Nc1ccc2c(c1)C(=O)c1cc(NC(=O)CCN3CCCC3)ccc1C2=O" ?
A: 5.64

Q: What value of measured pIC50 is listed for "CCN(CC)CCC(=O)Nc1ccc2c(c1)C(=O)c1ccc(NC(=O)CCN(CC)CC)cc1C2=O" ?
A: 5.50

Q: // query pIC50 value for entry "C[N+]1(CCC(=O)Nc2ccc3c(c2)C(=O)c2cc(NC(=O)CC[N+]4(C)CCCCC4)ccc2C3=O)CCCCC1"
A: 5.66

Q: GET /values?readout=pIC50&item= "CN(C)CCC(=O)Nc1ccc2c(c1)C(=O)c1cc(NC(=O)CCN(C)C)ccc1C2=O"
A: 5.38

Q: Item under review: "C[N+]1(CCC(=O)Nc2ccc(NC(=O)CC[N+]3(C)CCCC3)c3c2C(=O)c2ccccc2C3=O)CCCC1" . Reported pIC50?
A: 4.43
